# Test system: Fibroblast
# Procedure summary: Incucyte cell viability with human fibroblast; also: unitless GR value; below 1 slowed growth and below 0 cell loss
# Assay type: toxicity, cell-based
# Setup conditions: 6 h, 10 µM, compound concentration 10 uM, replicate number 2, timepoint 6 hours
Property label: Growth Rate
Please respond with just the number, no unit label.

So, C[C@@H]1CN(Cc2ccc(F)cc2)CCN1C(=O)COc1ccc(Cl)cc1NC(N)=O [BX 471 FREE BASE] ? Its Growth Rate was 0.36

So, `CC(C)n1cnc2c(Nc3cccc(Cl)c3)nc(N[C@H]3CCCC[C@@H]3N)nc21` ? Its Growth Rate was -0.31

So, `CCNC(=O)c1cc2c(-c3cc(C(C)(C)O)ccc3Oc3c(C)cc(F)cc3C)cn(C)c(=O)c2[nH]1` ? Its Growth Rate was 0.71

So, `CCC(=O)N1CC[C@H](Nc2ncnc3c2CN(c2cnc(OC)c(C(F)(F)F)c2)CC3)C1` ? Its Growth Rate was 0.91

So, `CCCCC1=NC2(CCCC2)C(=O)N1Cc1ccc(-c2ccccc2-c2nnn[nH]2)cc1` ? Its Growth Rate was 0.66

So, `COc1ccc(NC(=O)c2ccc(-c3ccc(-c4noc(C)n4)cc3C)cc2)cc1OCCN(C)C.Cl` ? Its Growth Rate was -0.28

So, `CCc1cc2c(cc1-c1cccc(S(=O)(=O)F)c1)C(C)(C)c1[nH]c3cc(C#N)ccc3c1C2=O` ? Its Growth Rate was 0.66

So, `COc1ccccc1N1CCN(C[C@@H](C(=O)NC(C)(C)C)c2ccccc2)CC1.Cl.Cl` ? Its Growth Rate was 0.96

So, Cc1sc2c(c1C)C(c1ccc(Cl)cc1)=N[C@@H](CC(=O)NCCCCCCCCNC(=O)COc1cccc3c1C(=O)N(C1CCC(=O)NC1=O)C3=O)c1nnc(C)n1-2 (some centres not stated) ? Its Growth Rate was -0.38

So, `CCC(=O)NC[C@@H]1C[C@H]1c1cccc2c1CCO2` ? Its Growth Rate was 0.26

So, `Cc1ccc(F)cc1C(=O)Nc1ccc(C(=O)N2Cc3cccn3Cc3ccccc32)c(Cl)c1` ? Its Growth Rate was 0.2

So, `COc1c(C)cc(NC(=O)c2nn(Cc3ccc(F)cc3)c3c2CN(C(=O)c2ccc[nH]2)C[C@]3(C)C(N)=O)cc1C` ? Its Growth Rate was 0.46

So, `CN1CCN(c2ccc(Nc3c4ccccc4nc4ccccc34)cc2)CC1.Cl.Cl.O` ? Its Growth Rate was 0.16

So, `CC(C)c1noc(N2CCC(COc3ccc(-c4ccc(S(C)(=O)=O)cc4)nc3)CC2)n1` ? Its Growth Rate was -0.06

So, `CC[C@H]1CN2CCc3cc(OC)c(OC)cc3[C@@H]2C[C@@H]1C[C@H]1NCCc2cc(OC)c(OC)cc21` ? Its Growth Rate was -0.75

So, `COc1ccncc1C(=O)NC(=O)Nc1ccc(-c2ccccc2)c(C(F)(F)F)c1` ? Its Growth Rate was 0.15

So, `CCc1nc2c(C)cc(C)nc2[nH]1` ? Its Growth Rate was 0.58

----------
# Test system: Fibroblast
# Procedure summary: Incucyte cell viability with human fibroblast; also: unitless GR value; below 1 slowed growth and below 0 cell loss
# Assay type: toxicity, cell-based
# Setup conditions: 24 h, 10 µM, compound concentration 10 uM, replicate number 2, timepoint 24 hours
Simple rule here: Growth Rate less than 0.5 is T, otherwise F.

Compound | Label
CCn1c(-c2nc3cc(C(=O)N4CCCC(N)C4)ccc3n2C)cc2ccccc21.Cl (stereo not given) | F
Nc1nc(-c2ccco2)c2cnn(Cc3ccccc3F)c2n1 | T
CN(C)C(=O)N1CC[C@H](NC2=Nc3cc(F)ccc3N(CC(F)F)c3ccc(Cl)cc32)C1 | F

Given the entry `OCCN1CCN(CCCN2c3ccccc3Sc3ccc(Cl)cc32)CC1` , would its reported Growth Rate be below 0.5?
F

Given the entry `CCCCCCCCCCCCC/C=C/[C@@H](O)[C@@H](N)COP(=O)([O-])OCC[N+](C)(C)C` , would its reported Growth Rate be below 0.5?
T

----------
# Tested on: HEK-293T
# Procedure summary: Incucyte cell viability with HEK293T; also: unitless GR value; below 1 slowed growth and below 0 cell loss
# Format: toxicity, cell-based
# Setup conditions: human, 24 h, 10 µM, compound concentration 10 uM, replicate number 1, timepoint 24 hours
Property label: Growth Rate
Please respond with just the number, no unit label.

For orientation, consider the following solved cases.
Compound | Growth Rate
CCCCCCCCc1ccc(CCC(N)(CO)CO)cc1 | -0.33
CN1CCC(C(=O)c2cccc(NC(=O)c3c(F)cc(F)cc3F)n2)CC1 | 0.93

So, `CC(C)n1cnc2c(Nc3cccc(Cl)c3)nc(N[C@H]3CCCC[C@@H]3N)nc21` ? Its Growth Rate was -0.25

So, CCn1c(-c2nc3cc(C(=O)N4CCCC(N)C4)ccc3n2C)cc2ccccc21.Cl (stereo not given) ? Its Growth Rate was 0.83

So, `O=c1ccc2ccc(OCCCCN3CCN(c4cccc5sccc45)CC3)cc2[nH]1` ? Its Growth Rate was -0.26

----------
# System: U2OS
# Procedure summary: Incucyte cell viability with U2OS; also: unitless GR value; below 1 slowed growth and below 0 cell loss
# Type: toxicity, cell-based
# Setup conditions: human, 6 h, 10 µM, compound concentration 10 uM, replicate number 1, timepoint 6 hours
Measured Growth Rate values are reported for all entries that follow.

For orientation, consider the following solved cases.
Compound | Growth Rate
C[C@@H]1CC(=O)Nc2cccc(-c3ccc4c(c3)c(-c3cnn(C)c3)nn4C)c2N1 | 0.24
CNC(=O)c1nn(C)c2c1C(C)(C)Cc1cnc(Nc3ccc(N4CCN(C)CC4)cc3)nc1-2 | 0.35
CCCCC/C=C\C/C=C\C/C=C\C/C=C\CCCC(=O)NCC(=O)O | 0.64
CC[C@@H](C)Nc1nc(C)nc2c(-c3ccc(OC)nc3C)c(C)nn12 | 1
O=C(Nc1cc(C(F)(F)F)ccc1N1CCCCC1)c1ccncc1 | 0.54
Cc1cc(O)c(-c2ccc([C@@H](C)CN(C)C)cc2)c2c1[nH]c(=O)c1sccc12 | 0.74

So, `Cc1cnc(CNCC2(F)CCN(C(=O)c3ccc(F)c(Cl)c3)CC2)nc1` ? Its Growth Rate was 0.35

So, `O=c1ccc2ccc(OCCCCN3CCN(c4cccc5sccc45)CC3)cc2[nH]1` ? Its Growth Rate was 0.98

So, C[C@@H](O[C@H]1OCCN(Cc2n[nH]c(=O)[nH]2)[C@H]1c1ccc(F)cc1)c1cc(C(F)(F)F)cc(C(F)(F)F)c1 [APREPITANT] ? Its Growth Rate was 0.29

So, `O=C1NC(Nc2ccccc2)=N/C1=C\c1ccc2c(c1)OCO2` ? Its Growth Rate was -0.77

So, C[N+]1(C)[C@@H]2C[C@@H](OC(=O)C(O)(c3cccs3)c3cccs3)C[C@H]1[C@@H]1O[C@@H]12.O.[Br-] [TIOTROPIUM BROMIDE] ? Its Growth Rate was 0.61

So, `Cc1cc(C)cc([C@H]2c3cc(C)ccc3NC(=O)CN2C(=O)c2ccc(Br)s2)c1` ? Its Growth Rate was 0.12

So, `COc1ccc(-n2c(C)c([N+](=O)[O-])c3ccc(O)cc32)cc1` ? Its Growth Rate was -0.36

So, `CC(C)(O)C(=O)N1CCN(c2ccc(C(F)(F)F)c(C3=C(c4c[nH]c5ccccc45)C(=O)NC3=O)c2)CC1` ? Its Growth Rate was 0.8

So, `Cc1ccc(F)cc1C(=O)Nc1ccc(C(=O)N2Cc3cccn3Cc3ccccc32)c(Cl)c1` ? Its Growth Rate was 0.32

So, `OCCCNc1cc(-c2ccnc(Nc3cccc(Cl)c3)n2)ccn1` ? Its Growth Rate was 0.44

----------
# System: HEK-293T
# Procedure summary: Incucyte cell viability with HEK293T; also: unitless GR value; below 1 slowed growth and below 0 cell loss
# Format: toxicity, cell-based
# Setup conditions: human, 12 h, 10 µM, compound concentration 10 uM, replicate number 2, timepoint 12 hours
Quick rule: Growth Rate of at least 0.6 means Condition met, below that means Condition not met.

Molecule | Measured target | Label
OCCN1CCN(CCCN2c3ccccc3Sc3ccc(Cl)cc32)CC1 [PERPHENAZINE] | HEK-293T | Condition not met

Is it the case that `O=C(O)c1n[nH]c2c1C[C@H]1C[C@@H]21` has Growth Rate reaching or exceeding 0.6?
Condition met

Is it the case that `COC(=O)[C@H](CCCNC(=N)N)NC(=O)CCCc1c(-c2ccccc2)[nH]c2c(F)cc(F)cc12.O=C(O)C(F)(F)F` has Growth Rate reaching or exceeding 0.6?
Condition not met

Is it the case that CN1C[C@@H](NS(=O)(=O)N(C)C)C[C@@H]2c3cccc4c3c(cn4C)C[C@H]21.Cl [MESULERGINE HYDROCHLORIDE] has Growth Rate reaching or exceeding 0.6?
Condition met

----------
# Tested on: Fibroblast
# Procedure summary: Incucyte cell viability with human fibroblast; also: unitless GR value; below 1 slowed growth and below 0 cell loss
# Assay type: toxicity, cell-based
# Setup conditions: 0 h, 10 µM, compound concentration 10 uM, replicate number 1, timepoint 0 hours
Measured Growth Rate values are reported for all entries that follow.
Please respond with just the number, no unit label.

For orientation, consider the following solved cases.
Compound | Property label | Measured value
CCNC(=O)c1cc2c(-c3cc(C(C)(C)O)ccc3Oc3c(C)cc(F)cc3C)cn(C)c(=O)c2[nH]1 | Growth Rate | 0.23
Cc1ccccc1N1CCN(S(=O)(=O)C[C@]23CC[C@H](C[C@@H]2NC(=O)[C@@H](N)CCS(C)(=O)=O)C3(C)C)CC1.Cl | Growth Rate | 0.33
CN1CCN(c2nc3cc(C(F)(F)F)ccc3n3cccc23)CC1.O=C(O)/C=C\C(=O)O.O=C(O)/C=C\C(=O)O | Growth Rate | 0.87
CC(=O)NCC(=O)N1[C@@H]2CC[C@H]1c1ccc(Nc3ncc(C(F)(F)F)c(NC4CCC4)n3)cc12 | Growth Rate | -0.04
CCN(Cc1ccncc1)C(=O)C(CO)c1ccccc1 (centres undefined) [TROPICAMIDE] | Growth Rate | 0.46
Cn1cc(C(=O)OCC2CCN(CCNS(C)(=O)=O)CC2)c2ccccc21 | Growth Rate | 0.81
CNCCN1CCC(c2cc(CN(C)C(=O)c3cccc(Oc4ccccc4)c3)ccn2)CC1 | Growth Rate | 0.7
CCC(=O)OCC(=O)[C@@]1(OC(=O)CC)[C@@H](C)C[C@H]2[C@@H]3CCC4=CC(=O)C=C[C@]4(C)[C@@]3(Cl)[C@@H](O)C[C@@]21C [BECLOMETHASONE DIPROPIONATE] | Growth Rate | -0.17
CN1[C@@H]2CC[C@H]1C[C@@H](OC(=O)C(CO)c1ccccc1)C2 (some centres undefined) | Growth Rate | -0.04
CSCC[C@H](NC(=O)[C@H](CC(C)C)NC(=O)CNC(=O)[C@H](Cc1ccccc1)N(C)C(=O)[C@H](Cc1ccccc1)NC(=O)[C@H](CC(=O)O)NC(=O)CCC(=O)O)C(N)=O [SENKTIDE] | Growth Rate | 0.34

Proceed to the following item.
So, `CCOC(=O)c1c(/C(C#N)=C\N)c2ccc(Cl)c(Cl)c2n1C` ? Its Growth Rate was 0.69
